- EXPERIMENTAL TARGET: UniProt P37058
- Sequence (P37058 whole entry): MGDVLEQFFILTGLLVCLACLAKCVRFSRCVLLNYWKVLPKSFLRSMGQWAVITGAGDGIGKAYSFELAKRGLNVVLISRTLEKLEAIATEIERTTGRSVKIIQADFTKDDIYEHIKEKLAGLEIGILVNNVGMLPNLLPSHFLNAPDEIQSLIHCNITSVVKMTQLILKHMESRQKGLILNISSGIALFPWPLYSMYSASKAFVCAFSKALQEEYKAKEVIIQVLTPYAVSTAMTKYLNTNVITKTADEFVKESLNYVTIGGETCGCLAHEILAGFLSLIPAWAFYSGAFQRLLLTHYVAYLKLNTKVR
- METHOD DESCRIPTION: Inhibition of 17Beta-HSD3 expressed in homogenized HEK293 cells assessed as transformation of [14C]-4-androstene-3,17-dione into [14C]-testosterone in presence of NADPH at 0.1 uM
- Type: cell-based
QUANTITY MEASURED: inhibition (%)
Give a bare numeral; the unit % is implied.

Query: Checklist item: inhibition tested on UniProt P37058, entry `C[C@@H]1CN(C(=O)c2cccc(C(F)(F)F)c2)[C@@H](C)CN1C[C@@]1(O)CC[C@@]2(C)[C@@H](CC[C@@H]3[C@@H]2CC[C@]2(C)C(=O)CC[C@@H]32)C1` , value?
Result: 89

Query: Item `C[C@]12CC[C@@]3(C[C@@H]1CC[C@@H]1[C@@H]2CC[C@]2(C)C(=O)CC[C@@H]12)CN(Cc1ccccc1)C(=O)O3` with UniProt P37058 - inhibition?
Result: 86

Query: Checklist item: inhibition tested on UniProt P37058, entry `C[C@]12CC[C@@]3(C[C@@H]1CC[C@@H]1[C@@H]2CC[C@]2(C)C(=O)CC[C@@H]12)CN(Cc1ccc(C(F)(F)F)cc1)C(=O)O3` , value?
Result: 80

Query: Fill in the recorded inhibition for this compound, with UniProt P37058 as test system: `C[C@]12CC[C@](O)(CN3CCN(Cc4cc(C(F)(F)F)cc(C(F)(F)F)c4)CC3)C[C@@H]1CC[C@@H]1[C@@H]2CC[C@]2(C)C(=O)CC[C@@H]12`
Result: 83

Query: Find inhibition (UniProt P37058) for the entry `C[C@]12CC[C@](O)(CN3CCN(S(=O)(=O)c4cccc(C(F)(F)F)c4)CC3)C[C@@H]1CC[C@@H]1[C@@H]2CC[C@]2(C)C(=O)CC[C@@H]12`
Result: 82
